The values you see were collected from the array DNA melting data of Ke et al. (doi:10.1101/2024.01.08.574731).

- Assay Info: melting temperature; fluorescence melt of hairpins on a sequencing array, two-state fit, raised by 9.35 °C to match UV melts
- Condition Notes: sodium 0.088 M
Recorded Endpoint: Tm (°C)

| Sequence Entry | Observed Value |
| --- | --- |
| GCTGCCGAAAGGCATAGC ((((((....)))..))) | 51.6 |
| GATCAACATCTTGATC ((((((....)))))) | 41.5 |
| GGAAGGCGAAAGCCATCC (((.(((....))).))) | 53.3 |
| GGAAGTACGAAAGTATCC (((..(((....)))))) | 23.4 |
| GATCGACCAATCGATC ((((((....)))))) | 49 |
| GATCATATTAATGATC ((((((....)))))) | 47.9 |
| GATCCGCAAACGGATC ((((((....)))))) | 58 |
| GCAACCGAAAGGTACTGC ((((((....)))..))) | 33.5 |
| GTGTAAACGAAAGTTCAC (((..(((....)))))) | 33.7 |
| GGCGTTCGAAAGAATGCC (((.(((....))).))) | 62.8 |
| GCATGCGGAAACACATGC (((((.(....).))))) | 49.7 |
| GGGCGAACGAAAGTTCCC (((..(((....)))))) | 45.2 |
| GTCCTCGAAAGAGGTGAC ((((((....)))..))) | 35.5 |
| GCGGCAACCGC ((((...)))) | 51.7 |
| GTGTCACGAAAGTGCCAC (((.(((....))).))) | 52.2 |
| GCGATGGTTCGC ((((....)))) | 49.8 |

====

- Assay Info: folding enthalpy; higher = less favourable; fluorescence melt of hairpins on a sequencing array, two-state fit
- Condition Notes: sodium 0.088 M
Categories are assigned from the measured folding enthalpy using these intervals: bottom = under -30 kcal/mol, middle = from -30 kcal/mol up to -20 kcal/mol, top = -20 kcal/mol and over

| Sequence Entry | Category Label |
| --- | --- |
| GGCACACGAAAGTGGCC (((.(((....)))))) | middle |
| GATCGGTGGCCGATC ((((((...)))))) | bottom |
| GAATGGGGAAACCTATTC ((((.((....)).)))) | bottom |
| GCAAGGCGAAAGCGATGC (((..((....))..))) | top |
| GTGTCTCGAAAGAGTCAC (((.(((....))).))) | bottom |
| GATCTGGGCGCAGATC ((((((....)))))) | bottom |
| GGTTACGGAAACATAACC (((((.(....).))))) | top |
| GTTGCCGAAAGGCTGAAC ((((((....)))..))) | top |
| GATCAGATCTCTGATC ((((((....)))))) | bottom |
| GTAGGGCGAAAGCCTAC (((.(((....)))))) | top |
| GTACAGCGAAAGCTTAC (((.(((....)))))) | top |
| GATCGACCAGTCGATC ((((((....)))))) | bottom |
| GTGATTACGAAAGTACAC (((..(((....)))))) | top |
| GCGTCGCGAAAGCACCGC (((..((....))..))) | middle |
| GGTCTCGAAAGAGCCACC ((((((....)))..))) | top |
| GCGGGTCCGAAAGGACGC (((..(((....)))))) | top |
| GTGCTGGGAAACCGGCAC ((((.((....)).)))) | bottom |
| GCCCTGGGAAACCAGAGC ((.((((....)))).)) | middle |
| GAGCCCCGAAAGGGTCTC (((.(((....))).))) | bottom |
| GCACTTGGAAACAAGCGC ((.((((....)))).)) | bottom |
| CGACTCGGAAACGATCG (((.(((....)))))) | bottom |
| GACTGAGGAAACTCGGTC (((.(((....))).))) | bottom |
| GAAAGCCGAAAGGCCTTC (((.(((....))).))) | top |
| GCCTAGCGAAAGCGAAGC ((.(.((....)).).)) | top |
| GATCGGGCTTCCGATC ((((((....)))))) | bottom |
| GGGTCCGAAAGGAATCCC ((((((....)))..))) | middle |
| GCGTTCGAAAGAAGCGC ((((((....))).))) | middle |
| GCCCGGGGAAACCCAGGC (((.(((....))).))) | bottom |
| GTAGTCGAAAGACTTAC ((((((....))).))) | top |
| CCATAGAAATATGG (((((....))))) | top |
| GATCGCAGGAGCGATC ((((((....)))))) | middle |
| GCGATGGGAAACCATCAC (.(((((....))))).) | top |
| GGTGGGGGAAACCCCGTC (..((((....))))..) | top |
| GGATACGAAAGTAAGTCC ((((((....)))..))) | top |
